Target: T1, HCV Core 134-171-TT Peptide (hepatitis C virus (HCV-1 numbering) …)
T1 construct: also called ALRZ-9 peptide
Assay: SPR, captured mAb, peptide analyte
Give log10 kon for every item shown.
Answers are given as log10 of kon in M⁻¹ s⁻¹.

[in] Bench note: what log10 kon did HCV 208A-983 (antibody, V domains shown) VH: QGQMQQSGAELVKPGASVKLSCKTSGFTFSSSYFSWLKQKPGQSLEWIAWIYAGTGNTIYNQKFTDKAQLTVDTASSTAFMQLSSLTIEDSAIYYCAISGTGFTYWGQGTLVTVSA VL: DVLMTQTPLSLPVNLGDQASISCRSSQSLLHSNGNTYLEWFLQKPGQSPKLLIYNVSNRFSGVPDRFSGSGSGTDFTLKISRVEAEDLGVYYCFQGSHVPFTFGSGTKLAIKR show?
[out] 4.99

[in] Record request: log10 kon value, item HCV 208B-547 (antibody, V domains shown) VH: QVQLQQSGAELAKPGASVKMSCKASGYTFTSNKMHWAKQRPGQGLEWIGYIDPSSGYTEYNQKIKDKATLTADKSSSTAYMQLSSLTSEDSAVYYCTNFAYWGQGTLVTVSA VL: EVVLTQSPAITAASLGQKVTITCRASSSVSYMHWYRQKSGTSPQPWIYEISTLASGVPTRFRASGSGTSYSLTISSMEAEDAAIYYCQQWNYPLTFGAGTKLELKR
[out] 6.20

[in] Quick one: log10 kon of HCV 208A-159 (antibody, V domains shown) VH: QLQQSGPAQVKPGASVMISCKTSGYTFTENAMHWVKQSHGKSLEWIGGVNPNNGDTIFNQKFKDKAALTVDKSSSTAFMELRSLTSEESTVYYCVRRELDFFDYWGQGTSVTVSS VL: DIVLTQSPASLAVSLGQRATISCRASQSVSTSRYSYVHWYQQKPGQPPKLLIKYAANLESGVPARFSGSGSGTDFTLNIHPVAEEDAAAYYCQHSWEFPFTFGSGTKLEIKR ?
[out] 6.15

[in] # lookup: log10 kon of HCV 208A-352 (antibody, V domains shown) VH: QGQMQQSGAELVKPGASVKLSCKTSGFTFSSSFISWLKQKPGQSLEWIAWIYAGTGNTNYNQKFTDKAQLTVDTSSSTAYMQFSSLTTEDSAIYYCAISGTGFTYWGQGTLVTVSA VL: DVLMAQTPLSLPVTLGDQASISCRSSQSLVHSNGNTYLEWFLQKPGQSPKLLIYNVSNRFSGVPDRFSGSGSGTDFTLKISRVEAEDLGVYYCFQGSHVPLTFGSGTKLEIKR
[out] 5.00

[in] Name the reported log10 kon value associated with the binder HCV 208A-741 (antibody, V domains shown) VH: QLQQSGPVLVKPGASVMISCKTSGYTFTENAMHWVKQSHGKSLEWIGGVNPNNGDTIFNQKFKGKATLTVDKSSSTAFMELRSLTSEESTVYYCVRRELDFFDYWGQGTSVTVSS VL: DIVLTQSPASLAVSLGQRTTISCGASQSVSTSRFSYMHWYQQKPGQPPKLLIKYASNLESGVPARFSGSGSGTDFTLNIHPVAEEDTAAYYCQHSWEFPFTFGSGTKLEIKR
[out] 6.23
